system: A549; experiment: A549 assay: screening of cancer cell growth inhibiting compound; type: cell-based; conditions: Homo sapiens, 72 h; A549 cells, three days, WST-8; read-out: A549 IC50
pIC50: −log10 of the molar value.
In this section we review reported pIC50 values for a set of compounds.

>  <compound>
O=C(NC1CC1)c1ccc(-c2cnc3c(OCC4CCOCC4)cc(NC4CCCCC4)nn23)cc1 [Example 2-89]

>  <systemName>
A549

>  <pIC50>
6.30 to 7.30

$$$$
>  <compound>
O=C(NC1CC1)c1ccc(-c2cnc3c(NCc4ccc(=O)[nH]c4)cc(NC4CCCCC4)nn23)cc1 [Example 2-165]

>  <systemName>
A549

>  <pIC50>
5.00 to 6.00

$$$$
>  <compound>
CC(C)C(C)Nc1cc(NCC2CCOCC2)c2ncc(-c3ccc(C(=O)NC4CC4)cc3)n2n1 (stereo not shown) [Example 2-55]

>  <systemName>
A549

>  <pIC50>
6.30 to 7.30

$$$$
>  <compound>
CCC(C)CNc1cc(NC2CCCCC2)nn2c(-c3ccc(C(=O)NC4CC4)cc3)cnc12 (stereo not shown) [Example 2-137]

>  <systemName>
A549

>  <pIC50>
6.30 to 7.30

$$$$
